# Test system: CAKI-1
# ASSAY_NOTES: NCI tumour cell line growth inhibition, 48 h
Active and inactive are the calls of the source. Rule as the data show it: active = GI50 up to about 1.1 µM and inactive = higher.
MEASUREMENT_NAME: GI50

Output measured GI50 for this item: Cc1ccc2c(CC(=O)O)cc(=O)oc2c1
> 100 µM (inactive)

Complete the entry with GI50 for CC(C)(C)[Si](C)(C)OC1(CCc2ccccc2OS(=O)(=O)C(F)(F)F)CCCC=C1COCc1ccccc1 (stereo not given)
> 100 µM (inactive)

For the compound COc1ccc(NC(C)=O)cc1N1C(=O)/C(=C\c2cc(OC)c(OC)c(OC)c2)S(=O)(=O)C1c1ccccc1 (stereo not given) , give its reported GI50.
> 100 µM (inactive)

Consider the compound CCOC(=O)c1nc2ccc(Cl)cc2c2c1Cc1ccccc1-2 and give its recorded GI50.
> 100 µM (inactive)

Write down GI50 measured for item CCOP(=O)(OCC)C(c1ccccc1)N(C(=O)NC(F)(F)F)c1cccc(F)c1 (stereo not given)
> 100 µM (inactive)

Name the recorded GI50 of the item O=c1c2cc([N+](=O)[O-])ccc2nc2n1CCCCC2 in your answer.
79.6 µM (inactive)

State its GI50: O=C(/C=C/c1ccc(O)c(O)c1)OCCOC(=O)/C=C/c1ccc(O)c(O)c1
39.4 µM (inactive)

Let me know recorded GI50 for O=C(Nc1ccccc1)c1cc(S(=O)(=O)NC2=Nc3ccc(Cl)cc3C(c3ccccc3)N2)c(SSc2cc(Cl)c(C(=O)Nc3ccccc3)cc2S(=O)(=O)NC2=Nc3ccc(Cl)cc3C(c3ccccc3)N2)cc1Cl (stereo not given) , thanks.
> 100 µM (inactive)

Complete the entry with GI50 for CC(=O)OCc1nnn2c1C(OC(C)=O)CC2 (stereo not given)
> 100 µM (inactive)

In one line, give reported GI50 of the entry C=CC/N=C1/N=C(CC(=O)OCC)CS1 .
> 100 µM (inactive)

Output GI50 of CC(C)(C)OC(=O)N1CCC(NC(=O)NC2CCN(C(=O)OC(C)(C)C)CC2)CC1
> 100 µM (inactive)

Name the recorded GI50 of the compound listed here: O=C(/C=C/c1ccc(O)c(O)c1O)OCCc1ccccc1
> 100 µM (inactive)

Using known records, supply GI50 for CN1CCC2(CC1)SC[C@H]1C(=O)N(c3ccc(Cl)cc3)C(=O)N12
> 100 µM (inactive)

Kindly indicate its recorded GI50. Item: C/C(=N\NC(=S)Nc1ccc(C(=O)O)cc1)c1ccccn1
29.5 µM (inactive)

Return reported GI50. Input compound: NS(=O)(=O)c1ccc(NNc2c3ccccc3nc3c(C(=O)Nc4ccc(S(N)(=O)=O)cc4)cccc23)cc1
> 100 µM (inactive)

Complete the entry with GI50 for O=S(=O)(c1ccccc1)n1c2ccc(Br)cc2c2nc3ccccc3nc21
> 100 µM (inactive)

Indicate the recorded GI50 value for this compound: O=[N+]([O-])c1ccc(/N=N/N2CCCC2)cc1
> 100 µM (inactive)

Please give the documented GI50 of O=C1Nc2ccccc2C(=O)/C1=C/NC(=S)NC1CCCCC1
> 100 µM (inactive)

Recall and state the measured GI50 for Cc1ccc2c(c1-c1ccccc1)C(=O)OC2 .
> 100 µM (inactive)

Specify GI50 for C/C(=N/O)c1cccc(Nc2nc3ccccc3c3[nH]c4ccccc4c23)c1 and stop.
2.75 µM (inactive)

Item COc1ccc(C)cc1N1C(=O)C2ON(Cc3ccc(CC(N)=O)cc3)C(c3c4ccccc4c(Cl)c4ccccc34)C2C1=O (stereo not given) : provide GI50
25.8 µM (inactive)

Output measured GI50 for this item: CC(=O)OCC1OC(SC2OC(COC(C)=O)C(OC(C)=O)C(OC(C)=O)C2OC(C)=O)C(OC(C)=O)C(OC(C)=O)C1OC(C)=O (stereo not given)
> 100 µM (inactive)

Consider the compound Nc1ncn(C/C=C/c2ccccc2)c2ncnc1-2 . State its measured GI50.
> 100 µM (inactive)

Look up and report measured GI50 for this entry: CC(=O)OC1COC(N2C(=O)/C(=N\Nc3ccc([N+](=O)[O-])cc3)c3cc(Br)c([N+](=O)[O-])cc32)C(OC(C)=O)C1OC(C)=O (stereo not given)
50.4 µM (inactive)

Indicate the recorded GI50 value for this compound: c1ccc(N2CCN(CCCN3CCc4c([nH]c5ccccc45)C3c3cccnc3)CC2)cc1 (stereo not given)
> 100 µM (inactive)

Give the reported GI50 for this compound. Cc1ccc(/C=N/n2c(Cc3ccccc3)n[nH]c2=O)cc1
28.6 µM (inactive)

Assign GI50 to the following record: ClC[Si]12OCCN(CCO1)CCO2
> 100 µM (inactive)

Give GI50 for CC(C)(C)c1ccc(O)c(CN(Cc2c(O)ccc3ccccc23)C2CCCCC2)c1
15.2 µM (inactive)

Entry O=C(O[C@H]1CCN2C[C@H]3C[C@H](CN4C(=O)CCC[C@H]34)[C@@H]2C1)c1ccc(O)cc1 needs its GI50 filled in; supply it.
> 100 µM (inactive)

State its GI50 for this compound: CC1=C(C(=O)NCc2ccccc2)C(c2ccccc2O)C(C(=O)NCc2ccccc2)=C(C)N1
18.3 µM (inactive)

Determine its reported GI50: CC[C@@H]1ON(C)[C@H]2CN(C)C(=O)[C@@H]12
> 100 µM (inactive)

State its GI50: COc1cccc(-c2ccc3c4c2O[C@H]2C(=O)CC[C@@]5(O)[C@@H](C3)N(CC3CC3)CC[C@]425)c1
16.6 µM (inactive)

// fetch GI50 given entry O=C1CCCC1NC(=O)C(F)(F)F (stereo not given)
> 100 µM (inactive)

State, in one line, measured GI50 of O=S(=O)(/N=c1\[nH]c(-c2cc(O)c(O)c(O)c2)cs1)c1ccc(Cl)cc1Cl
17.3 µM (inactive)

Tell us which GI50 value is on record for CN1C(=O)C2(C)SC1(c1ccccc1)C1C(=O)N(c3ccccc3)C(=O)C12 (stereo not given)
> 100 µM (inactive)

Please give measured GI50 of the following entry: O=C(CC1(O)C(=O)Nc2c(Cl)cc(Cl)cc21)c1ccc(Br)cc1Br (stereo not given)
4.24 µM (inactive)

Kindly indicate its recorded GI50. Item: CC(=O)C1=C(C)N(c2ccc(C)cc2)C2(O)C3=C(C(=O)c4ccccc4C3=O)C(O)=CC12Cl (stereo not given)
10.4 µM (inactive)

Check the records and state GI50 for CNC(=O)CN(CC(=O)O)C(=O)NC
> 100 µM (inactive)

# return recorded GI50 for entry CCOc1cccc2[s+]snc12
> 100 µM (inactive)

Entry O=[N+]([O-])C(/C=N/Nc1ccccc1)/C=N/Nc1ccccc1 needs its GI50 filled in; supply it.
> 100 µM (inactive)
